Hey, just so you know, these numbers are from PubChem BioAssay.

# Target or test system: Fibroblast growth factor 2 (Homo sapiens) (UniProt P09038)
# Sequence (P09038 whole entry, looked up): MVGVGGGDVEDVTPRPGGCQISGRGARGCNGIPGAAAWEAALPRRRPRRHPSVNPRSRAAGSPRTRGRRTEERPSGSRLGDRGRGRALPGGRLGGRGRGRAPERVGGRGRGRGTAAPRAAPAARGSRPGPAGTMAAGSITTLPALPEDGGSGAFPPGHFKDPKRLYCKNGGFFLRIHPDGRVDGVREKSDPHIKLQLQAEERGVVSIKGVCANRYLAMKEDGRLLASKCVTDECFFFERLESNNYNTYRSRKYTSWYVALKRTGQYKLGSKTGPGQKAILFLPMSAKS
# Assay info: FGF2 binders on small-molecule microarrays, primary screen, biochemical, small-molecule microarray, 635/667 nm fluorescence (AID 1133)
# Recorded conditions: small-molecule microarray binding, FGF2, fluorescence 635/667; higher = more signal
Answer each item with its documented composite z-score.
Give your answer as a number; write no unit.

What the record says about Cc1c(NC(=O)/C(C#N)=C/C=C/c2ccc([N+](=O)[O-])cc2)c(=O)n(-c2ccccc2)n1C : composite z-score is 1.11

What the record says about COCCOC(=O)N1C(=O)[C@@]2(c3cc(C#CCNC(N)=O)ccc31)[C@H](c1ccccc1OCCO)N1[C@H](c3ccccc3)[C@H](c3ccccc3)OC(=O)[C@H]1[C@@H]2C(=O)N1CCCCCCC1 : composite z-score is 0.937

What the record says about COC(=O)[C@@]1(Cc2ccc(F)cc2)[C@H]2c3cc(C(=O)N4CCCC4)n(Cc4ccc(OC(F)(F)F)cc4)c3C[C@H]2CN1C(=O)c1ccccc1 : composite z-score is -0.685

----------
# System: Sam68 (KHDRBS1)
# Assay info: Sam68 small-molecule binders, primary screen, biochemical, small-molecule microarray, 635 nm fluorescence (AID 1125);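 also: score merges 667 nm channel intensity with signal to noise over triplicate slides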
# Recorded conditions: small-molecule microarray binding, higher = more signal
Label rule, in plain words: composite z-score of 0.2 and up is 1.0, under 0.2 is 0.0.

Could you tell me if the measured composite z-score of O=C(NCC(F)(F)F)[C@@H]1c2ccccc2C(=O)N(Cc2cc(C(F)(F)F)cc(C(F)(F)F)c2)[C@H]1c1ccc(CO)cc1 reaches 0.2 or more? 0.0

Could you tell me if the measured composite z-score of COCCCNC(=O)[C@]1(Cc2ccccc2CN=[N+]=[N-])N=C(c2ccc(OCCCO)cc2)O[C@@H]1c1ccccc1N=[N+]=[N-] reaches 0.2 or more? 1.0

Could you tell me if the measured composite z-score of O=C(O)C1=CC[C@H]2C(=O)N(c3ccccc3)C(=O)[C@@H]12 reaches 0.2 or more? 1.0

Could you tell me if the measured composite z-score of C[C@@]1([C@@H](NS(=O)(=O)c2cccc3cccnc23)c2ccc(-c3ccccc3)cc2)C[C@H]1C1CCCCC1 reaches 0.2 or more? 1.0

Could you tell me if the measured composite z-score of Cc1ccc(S(=O)(=O)N2[C@@H](c3ccccc3)C(C(=O)O)=CC[C@H]2c2ccc(F)cc2)cc1 reaches 0.2 or more? 1.0

Could you tell me if the measured composite z-score of C=CC[C@H](O)c1ccc(O)c(F)c1 reaches 0.2 or more? 0.0

Could you tell me if the measured composite z-score of Cc1ccc(N2C(=O)c3ccccc3[C@@H](C(=O)NCCN3CCOCC3)[C@@H]2c2ccc(CO)cc2)nc1 reaches 0.2 or more? 0.0

Could you tell me if the measured composite z-score of COCCCNC(=O)[C@@]1(Cc2ccccc2I)c2ccccc2C(=O)N(C2CCCCC2)[C@H]1c1ccc(CO)cc1 reaches 0.2 or more? 1.0

----------
# Target or test system: Streptavidin (Streptomyces avidinii) (UniProt P22629)
# Sequence (P22629 whole entry, looked up): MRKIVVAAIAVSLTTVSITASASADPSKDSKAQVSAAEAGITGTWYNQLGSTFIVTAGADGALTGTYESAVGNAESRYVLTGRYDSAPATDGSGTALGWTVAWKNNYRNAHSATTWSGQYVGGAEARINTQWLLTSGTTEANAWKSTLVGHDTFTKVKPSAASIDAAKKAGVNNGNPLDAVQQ
# Assay info: streptavidin binders on small-molecule microarray, primary screen, artefact control for SMM compound annotation, biophysical, 635/667 nm fluorescence (AID 1147);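 also: signal reflects streptavidin binding to arrayed compounds as a control protein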
# Recorded conditions: streptavidin binding, higher = more signal
Experimental readout: composite z-score
Give your answer as a number; write no unit.

What the record says about [N-]=[N+]=Nc1ccccc1C[C@]1(C(N)=O)COC(c2ccc(OCCCO)cc2)=N1 : composite z-score is 0.559

What the record says about C=CCN1C(=O)[C@@]2(O[C@@H](CCO)[C@H]([Si](C)(C)c3ccc(OC)cc3)[C@H]2C)c2cc(N3CCCCC3=O)ccc21 : composite z-score is 0.732

What the record says about C=CCNC(=O)[C@H]1[C@@H]2C(=O)O[C@@H](c3ccccc3)[C@@H](c3ccccc3)N2[C@@H](c2ccc(O)cc2)[C@]12C(=O)Nc1ccccc12 : composite z-score is -0.642

What the record says about CC(C)c1ccc(NN2C(C(O)c3ccccc3)C=CC3C(=O)N(c4ccccc4)C(=O)C32)cc1 (stereo not given) : composite z-score is 0.576

What the record says about C=C(C(=O)CC[C@@H](OC(=O)c1ccccc1-c1ccccc1C(=O)O)c1ccc(OCCO)cc1)C(C)C : composite z-score is 0.0206

What the record says about CN1C(=O)C2CC=C(C3=CCO[C@@H]3[C@H]3CCCN3S(=O)(=O)c3ccccc3[N+](=O)[O-])CC2C1=O (stereo not given in full) : composite z-score is -0.102

What the record says about O=C1N(Cc2ccccc2)Cc2ccccc2C[C@@]12COC(c1ccc(OCCCO)cc1)=N2 : composite z-score is -0.0644

What the record says about C=CCNC(=O)[C@@H]1[C@H]2C(=O)O[C@H](c3ccccc3)[C@H](c3ccccc3)N2[C@H](c2ccc(O)cc2)[C@@]12C(=O)N(C(=O)OCCOC)c1ccc(C#CCC(C(=O)OC)C(=O)OC)cc12 : composite z-score is 0.0198

What the record says about CC(C)(C)OC(=O)N1[C@@H](C=C(Br)Br)COC1(C)C : composite z-score is 0.29

What the record says about COC(=O)[C@H]1N=C(c2ccc(OCCCO)cc2)O[C@H]1c1ccccc1N=[N+]=[N-] : composite z-score is 0.489

What the record says about [N-]=[N+]=Nc1ccccc1C[C@@]1(C(=O)NCc2ccccc2)N=C(c2ccc(OCCCO)cc2)O[C@@H]1c1ccccc1 : composite z-score is 0.877

What the record says about C=C(CCCC)C(=O)CC[C@H](OC(=O)c1ccccc1-c1ccccc1C(=O)O)c1cccc(OCCO)c1 : composite z-score is -0.352

What the record says about COc1ccc(C(=O)Nc2ccc(CN3C(=O)[C@]4(O[C@H](CC(=O)N(CCO)Cc5ccccc5)[C@@H]([Si](C)(C)c5ccc(OC)cc5)[C@@H]4C)c4ccccc43)cc2)cc1 : composite z-score is -0.138

What the record says about O=C1O[C@@H](c2ccccc2)[C@@H](c2ccccc2)N2[C@@H](c3ccccc3OCCO)[C@]3(C(=O)Nc4ccc(C#CC5(O)CCCCCC5)cc43)[C@@H](C(=O)N3CCCCCCC3)[C@H]12 : composite z-score is 2.41

What the record says about CC(CO)N1C(=O)[C@@H]2[C@H]3C(=O)OCC=C[C@H]3OC23C=CCN(c2ccc4ccccc4c2)C(=O)[C@@H]13 (stereo not given in full) : composite z-score is -1.06
